Listed here: items and their measured OD450 nm.
Target: T1, human APRIL protein (human, UniProt O75888 105-250, limits assumed)
T1 construct: Bought protein; also called recombinant APRIL protein
T1 sequence (looked up): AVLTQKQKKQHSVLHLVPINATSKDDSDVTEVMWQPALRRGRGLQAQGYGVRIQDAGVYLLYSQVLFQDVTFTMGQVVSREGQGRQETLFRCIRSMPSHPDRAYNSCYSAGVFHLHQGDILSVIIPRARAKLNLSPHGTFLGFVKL
Assay: ELISA, coated APRIL; antibody 66.7 nM
# answer = number (no unit)

Example entries and their recorded answers appear below.
- Binder: "20D1B6E9E5 (antibody, V domains shown) VH: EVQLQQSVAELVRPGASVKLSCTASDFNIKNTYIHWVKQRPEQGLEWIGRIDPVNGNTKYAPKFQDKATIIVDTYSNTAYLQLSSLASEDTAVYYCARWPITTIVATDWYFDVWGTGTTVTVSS VL: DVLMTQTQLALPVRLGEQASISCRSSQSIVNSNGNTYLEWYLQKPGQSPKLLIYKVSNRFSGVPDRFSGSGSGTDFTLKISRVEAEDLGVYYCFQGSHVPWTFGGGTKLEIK"
  Measure name: "OD450 nm"
  Number: 0.942
- Binder: "L1D12 (antibody, human IgG1, V domains shown, also called LID12) VH: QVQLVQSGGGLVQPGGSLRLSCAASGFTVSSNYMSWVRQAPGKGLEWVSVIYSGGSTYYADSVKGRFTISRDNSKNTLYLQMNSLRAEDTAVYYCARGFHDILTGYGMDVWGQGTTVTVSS VL: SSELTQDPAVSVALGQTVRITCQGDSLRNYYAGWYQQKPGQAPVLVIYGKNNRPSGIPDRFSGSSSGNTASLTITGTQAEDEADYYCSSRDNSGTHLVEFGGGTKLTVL"
  Measure name: "OD450 nm"
  Number: 0.133

Can you share its OD450 nm? I mean this binder: 97A3C2H4 (antibody, V domains shown, Mouse hybridoma antibody purified on Protein G) VH: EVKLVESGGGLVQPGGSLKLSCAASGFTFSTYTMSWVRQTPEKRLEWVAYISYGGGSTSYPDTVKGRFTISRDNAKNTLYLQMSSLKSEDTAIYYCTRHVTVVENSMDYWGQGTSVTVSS VL: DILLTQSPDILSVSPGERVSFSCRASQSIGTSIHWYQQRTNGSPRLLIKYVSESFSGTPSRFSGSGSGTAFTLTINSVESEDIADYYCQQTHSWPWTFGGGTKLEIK 0.173
